Values compiled from patent US20240279318A1.

# experimental-target: T1, AFP158/HLA-A*02:01 complex (human)
# T1 construct: flowed over the chip in SPR; also called AFP158 pro
# test: SPR, KD ratio to AS170036 VL1VH1;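 also: crude scFv captured on a sensor chip, peptide–HLA complex passed over at several concentrations, association then buffer dissociation, KD derived from on- and off-rates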
measure-name: Affinity increase (fold)
Give the number; fold is assumed, so skip it.

binder	measure-name	observed-measurement
HS57M (scFv, AS170036 VL1VH1 scFv mutein; also called AS170036 VL1VH1-VHS57M) scFv: QSALTQPRSVSGSPGQSVTISCAGTSSDVGSENYVSWYQQHPGKAPKLMIYQVNKRASGVPDRFSGSKSGNTASLTISGLQAEDEADYYCASYRSSDHNIVFGGGTKLTVLGGGGSGGGGSGGGGSEVQLVESGGGLVQPGGSLRLSCAASGFTFSSYAMSWVRQAPGKGLEWVSTINSGTGMPYYADSVKGRFTISRDNSKNTLYLQMNSLRAEDTAVYYCAKNFFDGSWFLGPPAMDYWGQGTLVTVSSHHHHHH	Affinity increase	2.7

Sample HG56L (scFv, AS170036 VL1VH1 scFv mutein) scFv: QSALTQPRSVSGSPGQSVTISCAGTSSDVGSENYVSWYQQHPGKAPKLMIYQVNKRASGVPDRFSGSKSGNTASLTISGLQAEDEADYYCASYRSSDHNIVFGGGTKLTVLGGGGSGGGGSGGGGSEVQLVESGGGLVQPGGSLRLSCAASGFTFSSYAMSWVRQAPGKGLEWVSTINSGTLSPYYADSVKGRFTISRDNSKNTLYLQMNSLRAEDTAVYYCAKNFFDGSWFLGPPAMDYWGQGTLVTVSSHHHHHH ; Affinity increase observed: 0.8
